# Test system: non-tumorigenic cell line BJ
# Condition label: human, 72 h
I'd be grateful if you could share measured IC50 for these entries.

Output measured IC50 for this item: COC(=O)[C@]1(C)CCC[C@]2(C)c3c(cc(C(C)C)c(O)c3O)CC[C@@H]12 [Compound 9, Methyl 11,12-Dihydroxy-dehydroabietate]
57.6 µM

Output measured IC50 for this item: CC(C)c1cc2c(c(O)c1O)[C@@]1(C)CCC[C@@](C)(CN3C(=O)c4ccccc4C3=O)[C@@H]1CC2 [Compound 10]
32.5 µM

###

# Tested on: SUM149
# Assay: CellTiterGlo luminescent cell viability assay, SUM149
# Condition label: read-out: Cytotoxicity IC50 SUM149; 72 h incubation, CellTiter-Glo, mean ± SD
Property label: pIC50
By convention, pIC50 is the negative base-10 log of a molar concentration.

Output measured pIC50 for this item: `CC(C)c1cc2c(cc1O)[C@@]1(C)CCC[C@@](C)(CN3C(=O)c4ccccc4C3=O)[C@@H]1CC2`
5.36
